Cited source: patent US7101878B1

Tested target: mouse GnRH receptor (Mus musculus)
Construct: expressed in transfected cells; host or cells: 293 cells
Sequence (Q01776 whole entry): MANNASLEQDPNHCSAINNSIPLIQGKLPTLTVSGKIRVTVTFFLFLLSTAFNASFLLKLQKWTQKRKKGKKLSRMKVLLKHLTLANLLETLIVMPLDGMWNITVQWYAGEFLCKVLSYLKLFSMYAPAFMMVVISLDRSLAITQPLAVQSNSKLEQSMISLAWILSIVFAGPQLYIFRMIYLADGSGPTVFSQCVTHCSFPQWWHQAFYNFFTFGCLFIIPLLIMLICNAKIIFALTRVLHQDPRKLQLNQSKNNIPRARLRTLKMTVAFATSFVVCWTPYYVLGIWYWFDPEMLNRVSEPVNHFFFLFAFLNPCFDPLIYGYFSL
Test description: Radioligand binding, 125I-GnRH-A, 293 cells expressing mouse GnRH receptors
Test settings: 1 h, substrate remaining; 10 uM compound; closer to zero = closer to 100% inhibition; read-out: S%R 10 uM mGnRHR
Parameter measured: remaining activity at 10 µM

>>> recorded_value("Cc1cc2c(cc1Cc1ccc(C(=O)NCCCn3ccnc3)o1)C(C)(C)CCC2(C)C")
"-10%"
>>> recorded_value("CSCCCNC(=O)c1ccc(Cc2cc3c(cc2C)C(C)(C)CCC3(C)C)o1")
"2%"
>>> recorded_value("Cc1cc2c(cc1Cc1ccc(C(=O)NC(C)C3CCCCC3)o1)C(C)(C)CCC2(C)C (stereo not drawn)")
"29%"
>>> recorded_value("Cc1cc2c(cc1Cc1ccc(C(=O)NCCCO)o1)C(C)(C)CCC2(C)C")
"4%"
>>> recorded_value("COC(CN(C)C(=O)c1ccc(Cc2cc3c(cc2C)C(C)(C)CCC3(C)C)o1)OC")
"11%"
>>> recorded_value("CCC(CO)NC(=O)c1ccc(Cc2cc3c(cc2C)C(C)(C)CCC3(C)C)o1 (stereo not drawn)")
"11%"
>>> recorded_value("Cc1cc2c(cc1Cc1ccc(C(=O)N(C)C3CCN(C)CC3)o1)C(C)(C)CCC2(C)C")
"12%"
>>> recorded_value("COc1cccc(CN(Cc2cccc(Oc3cccc(C(F)(F)F)c3)c2)C(=O)c2ccc(Cc3cc4c(cc3C)C(C)(C)CCC4(C)C)o2)c1OC")
"25%"
>>> recorded_value("COc1ccccc1CN(C(=O)c1ccc(Cc2cc3c(cc2C)C(C)(C)CCC3(C)C)o1)C1CCN(Cc2ccccc2)C1 (stereo not drawn)")
"10%"
>>> recorded_value("Cc1cc2c(cc1Cc1ccc(C(=O)NCCc3cccc(C(F)(F)F)c3)o1)C(C)(C)CCC2(C)C")
"9%"
>>> recorded_value("Cc1cc2c(cc1Cc1ccc(C(=O)N(CCC(c3ccccc3)c3ccccc3)Cc3ccco3)o1)C(C)(C)CCC2(C)C")
"58%"
>>> recorded_value("Cc1cc2c(cc1Cc1ccc(C(=O)NC[C@@H]3CCCC[C@H]3O)o1)C(C)(C)CCC2(C)C")
"3%"
>>> recorded_value("Cc1cc2c(cc1Cc1ccc(C(=O)N(CC(C)C)CC(C)C)o1)C(C)(C)CCC2(C)C")
"15%"
>>> recorded_value("Cc1cc2c(cc1Cc1ccc(C(=O)N(CCN3CCCC3)Cc3ccccc3)o1)C(C)(C)CCC2(C)C")
"0%"
>>> recorded_value("Cc1cc2c(cc1Cc1ccc(C(=O)NCC3CN(Cc4ccccc4)CCO3)o1)C(C)(C)CCC2(C)C (stereo not drawn)")
"1%"

====

Tested target: human GnRH receptor (Homo sapiens, UniProt P30968)
Construct: expressed in transfected cells; host or cells: HEK 293 (hGnRH-R/293, from Dr. Stuart Sealfon)
Sequence (P30968 1-328): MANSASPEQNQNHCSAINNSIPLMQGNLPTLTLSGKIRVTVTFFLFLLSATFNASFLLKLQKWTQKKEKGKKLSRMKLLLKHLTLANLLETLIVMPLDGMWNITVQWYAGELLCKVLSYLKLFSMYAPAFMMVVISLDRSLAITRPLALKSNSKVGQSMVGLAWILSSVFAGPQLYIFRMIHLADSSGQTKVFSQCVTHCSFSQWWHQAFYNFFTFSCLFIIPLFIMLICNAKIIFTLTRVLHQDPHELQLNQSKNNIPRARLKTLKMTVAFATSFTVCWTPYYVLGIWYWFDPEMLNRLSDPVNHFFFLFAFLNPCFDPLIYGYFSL
Test description: Radioligand binding, 125I-GnRH-A displacement, membranes of HEK 293 cells with human GnRH receptor
Test settings: 1 h, repeat of % Inhib. at 1 uM; read-out: Repeats @ 1 uM hGnRH
Protocol: All compounds were diluted in 1% DMSO (final assay concentration) in binding assay buffer. […] Reactions were terminated by rapid filtration onto 96-well Packard GF/C filters soaked in 0.1% polyethyleneimine. Filters were washed three times with PBS buffer, dried and counted on a Packard Topcount by liquid scintillation counting. […] The reaction mixture was vortexed and incubated for 1 min at room temperature. […] Fractions were assessed for biological activity by radioligand binding. […]
Parameter measured: inhibition at 1 µM (%)

>>> recorded_value("COCCNC(=O)c1ccc(Cc2cc3c(cc2C)C(C)(C)CCC3(C)C)o1 [drawing 1155]")
61
>>> recorded_value("Cc1cc2c(cc1Cc1ccc(C(=O)NC(Cc3ccccc3)c3ccccc3)o1)C(C)(C)CCC2(C)C (stereo not drawn)")
19
>>> recorded_value("Cc1cc2c(cc1Cc1ccc(C(=O)NC(C)c3ccccc3)o1)C(C)(C)CCC2(C)C (stereo not drawn) [drawing 1138]")
58
>>> recorded_value("Cc1cc2c(cc1Cc1ccc(C(=O)NCCCc3ccccc3)o1)C(C)(C)CCC2(C)C [drawing 990]")
90
>>> recorded_value("Cc1cc2c(cc1Cc1ccc(C(=O)NCc3ccc(C(=O)O)cc3)o1)C(C)(C)CCC2(C)C [drawing 1016]")
45
>>> recorded_value("CC(=O)NCCNC(=O)c1ccc(Cc2cc3c(cc2C)C(C)(C)CCC3(C)C)o1 [drawing 991]")
54
>>> recorded_value("Cc1cc2c(cc1Cc1ccc(C(=O)N(C)Cc3ccccc3Cl)o1)C(C)(C)CCC2(C)C")
21
>>> recorded_value("Cc1cc2c(cc1Cc1ccc(C(=O)NCCN(C)C)o1)C(C)(C)CCC2(C)C")
-7
>>> recorded_value("Cc1cc2c(cc1Cc1ccc(C(=O)NCCc3ccc(Cl)cc3Cl)o1)C(C)(C)CCC2(C)C [drawing 998]")
23
>>> recorded_value("CCN(Cc1cc([N+](=O)[O-])ccc1O)C(=O)c1ccc(Cc2cc3c(cc2C)C(C)(C)CCC3(C)C)o1")
-5
>>> recorded_value("Cc1cc2c(cc1Cc1ccc(C(=O)NCCCN3CCCCC3C)o1)C(C)(C)CCC2(C)C (stereo not drawn) [drawing 983]")
31
>>> recorded_value("Cc1cc2c(cc1Cc1ccc(C(=O)N3CCN(c4ccncc4)CC3)o1)C(C)(C)CCC2(C)C")
11
>>> recorded_value("Cc1cc2c(cc1Cc1ccc(C(=O)Nc3ccc4[nH]c(-c5ccccn5)nc4c3)o1)C(C)(C)CCC2(C)C [drawing 1002]")
8
>>> recorded_value("Cc1cc2c(cc1Cc1ccc(C(=O)Nc3ccccc3C(=O)Nc3cnccn3)o1)C(C)(C)CCC2(C)C")
-29
>>> recorded_value("Cc1cc2c(cc1Cc1ccc(C(=O)NCc3ccc(F)c(F)c3)o1)C(C)(C)CCC2(C)C [drawing 1030]")
60
>>> recorded_value("COc1ccc(CNC(=O)c2ccc(Cc3cc4c(cc3C)C(C)(C)CCC4(C)C)o2)cc1OC [drawing 1095]")
75
>>> recorded_value("CCOC(=O)N1CCC(NC(=O)c2ccc(Cc3cc4c(cc3C)C(C)(C)CCC4(C)C)o2)CC1")
16
>>> recorded_value("Cc1cc2c(cc1Cc1ccc(C(=O)NCc3ccccc3C(F)(F)F)o1)C(C)(C)CCC2(C)C [drawing 997]")
6
>>> recorded_value("Cc1cc2c(cc1Cc1ccc(C(=O)NCCN3CCCC3)o1)C(C)(C)CCC2(C)C [drawing 986]")
0
>>> recorded_value("Cc1cc2c(cc1Cc1ccc(C(=O)NCCc3ccc(-c4ccccc4)cc3)o1)C(C)(C)CCC2(C)C")
-31
>>> recorded_value("Cc1cc2c(cc1Cc1ccc(C(=O)NC(C)(C)Cc3ccc(F)cc3)o1)C(C)(C)CCC2(C)C")
22
>>> recorded_value("COc1ccccc1CNC(=O)c1ccc(Cc2cc3c(cc2C)C(C)(C)CCC3(C)C)o1 [drawing 1078]")
88
>>> recorded_value("Cc1cc2c(cc1Cc1ccc(C(=O)N3CCN(c4cccc(Cl)c4)CC3)o1)C(C)(C)CCC2(C)C")
9
>>> recorded_value("Cc1cc2c(cc1Cc1ccc(C(=O)N3CCN(c4ccccc4F)CC3)o1)C(C)(C)CCC2(C)C")
3
>>> recorded_value("Cc1cc2c(cc1Cc1ccc(C(=O)N[C@H](C)[C@@H](O)c3ccccc3)o1)C(C)(C)CCC2(C)C")
25
>>> recorded_value("CCc1ccc(CCNC(=O)c2ccc(Cc3cc4c(cc3C)C(C)(C)CCC4(C)C)o2)cc1")
32
>>> recorded_value("Cc1cc2c(cc1Cc1ccc(C(=O)NCC(O)c3ccc(O)cc3)o1)C(C)(C)CCC2(C)C (stereo not drawn)")
28
>>> recorded_value("COc1cccc(OC)c1CNC(=O)c1ccc(Cc2cc3c(cc2C)C(C)(C)CCC3(C)C)o1")
2
>>> recorded_value("Cc1cc2c(cc1Cc1ccc(C(=O)NCC3CCN(c4ccnc(Cl)n4)CC3)o1)C(C)(C)CCC2(C)C [drawing 1064]")
91
>>> recorded_value("Cc1cc2c(cc1Cc1ccc(C(=O)N(CCCO)Cc3ccccn3)o1)C(C)(C)CCC2(C)C [drawing 1107]")
0
>>> recorded_value("Cc1cc2c(cc1Cc1ccc(C(=O)NCC(F)(F)F)o1)C(C)(C)CCC2(C)C [drawing 1018]")
9
>>> recorded_value("Cc1cc2c(cc1Cc1ccc(C(=O)NC3CCN(c4nccc(NCC5CCCO5)n4)C3)o1)C(C)(C)CCC2(C)C (stereo not drawn) [drawing 1036]")
0
>>> recorded_value("Cc1cc2c(cc1Cc1ccc(C(=O)NCCSc3cc(C(F)(F)F)nc4ccccc34)o1)C(C)(C)CCC2(C)C")
5
